Reference source for all entries: patent US20230339890A1

# TARGET: Recombinant human CYP51A1 (lanosterol-14a-demethylase) (Homo sapiens (Human), UniProt Q16850)
# Sequence (Q16850 whole entry): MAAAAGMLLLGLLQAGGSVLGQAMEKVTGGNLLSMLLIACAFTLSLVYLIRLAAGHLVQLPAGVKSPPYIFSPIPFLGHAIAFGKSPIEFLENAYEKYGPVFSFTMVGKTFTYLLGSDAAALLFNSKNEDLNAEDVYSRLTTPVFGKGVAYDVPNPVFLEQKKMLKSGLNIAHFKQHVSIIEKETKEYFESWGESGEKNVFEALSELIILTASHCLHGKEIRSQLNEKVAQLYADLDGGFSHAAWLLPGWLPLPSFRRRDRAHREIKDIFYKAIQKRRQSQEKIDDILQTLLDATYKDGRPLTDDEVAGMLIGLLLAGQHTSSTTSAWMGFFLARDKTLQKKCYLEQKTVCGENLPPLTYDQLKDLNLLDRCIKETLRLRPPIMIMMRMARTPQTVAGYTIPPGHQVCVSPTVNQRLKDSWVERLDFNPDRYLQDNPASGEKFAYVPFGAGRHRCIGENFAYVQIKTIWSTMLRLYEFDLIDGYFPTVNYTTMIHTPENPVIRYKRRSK
# EXPERIMENT NOTES: Inhibition of CYP51A1, fluorescent substrate BOMCC
# TEST SETTINGS: recombinant human CYP51A1 coexpressed with CYP reductase in bacterial membranes, 8-point concentration-response, read-out: CYP51 IC50
pIC50: −log10 of the molar value.
We begin with a simple list: items and their reported pIC50.

COMPOUND | pIC50
CCCN(C[C@@H](O)c1cccnc1)C(=O)N1Cc2cc(Cl)c(Br)cc2C1 | ≥ 7.00
CC(=O)N1CCC(CN(C[C@@H](O)c2cccnc2)C(=O)Cc2ccc(C(F)(F)F)nc2)CC1 | < 6.00
CCCN(C[C@@H](O)c1cccnc1)C(=O)Cc1ccc(C(F)(F)F)nc1 | ≥ 7.00
CCN(C[C@@H](O)c1cccnc1)C(=O)Cc1ccc(Cl)c(Cl)c1 | 6.00 to 7.00
CC(C)(C)OC(=O)NCCCN(C[C@@H](O)c1cccnc1)C(=O)Cc1ccc(C(F)(F)F)nc1 | ≥ 7.00

Continue with the compound presented below.
Look up pIC50: CCCN(CC(O)c1cccnc1)C(=O)Cc1ccc(OC)c(OC)c1 (stereo not drawn)
< 6.00
